- Assay details: PK of compound of Formula (Ia) after single subcutaneous dose of solution formulations in Wistar Han rats
- Type: in vivo
- Condition context: male, Wistar Han, rat, plasma, sc, 50 mg/kg, Wistar Han rats, SC 50 mg/kg, 400 mg/mL solution Z (3.13% poloxamer 188), 3024 h, Mean n = 4
Readout label: concentration at 3024 h (nM)

CC(C)(C#Cc1ccc(-c2ccc(Cl)c3c(NS(C)(=O)=O)nn(CC(F)(F)F)c23)c([C@H](Cc2cc(F)cc(F)c2)NC(=O)Cn2nc(C(F)(F)F)c3c2C(F)(F)[C@@H]2C[C@H]32)n1)S(C)(=O)=O    133

###

- Assay details: PK of compound of Formula (Ia) after single intramuscular dose of solution formulations in Wistar Han rats
- Type: in vivo
- Condition context: male, Wistar Han, rat, plasma, intramuscular, 100 mg/kg, Solution K (~500 mg/mL, ethanol); IM 100 mg/kg; Wistar Han rats; mean, n = 4; 3.00 h; read-out: Plasma concentration, Mean
Readout label: concentration at 3 h (nM)

CC(C)(C#Cc1ccc(-c2ccc(Cl)c3c(NS(C)(=O)=O)nn(CC(F)(F)F)c23)c([C@H](Cc2cc(F)cc(F)c2)NC(=O)Cn2nc(C(F)(F)F)c3c2C(F)(F)[C@@H]2C[C@H]32)n1)S(C)(=O)=O    209

###

- Assay details: PK of compound of Formula (Ia) after single subcutaneous dose of solution formulations in Wistar Han rats
- Format: in vivo
- Condition context: male, Wistar Han, rat, plasma, sc, 50 mg/kg, mean ± SD, n = 3 rats; SC 50 mg/kg; solution S, 500 mg/mL; read-out: AUC0-7392 h
Readout label: AUC(0-t) (µM·h)

CC(C)(C#Cc1ccc(-c2ccc(Cl)c3c(NS(C)(=O)=O)nn(CC(F)(F)F)c23)c([C@H](Cc2cc(F)cc(F)c2)NC(=O)Cn2nc(C(F)(F)F)c3c2C(F)(F)[C@@H]2C[C@H]32)n1)S(C)(=O)=O [compound of Formula (Ia)]    945

###

- Assay details: PK of compound of Formula (Ia) after single subcutaneous dose of solution formulations in Wistar Han rats
- Format: in vivo
- Condition context: male, Wistar Han, rat, plasma, sc, 50 mg/kg, 8.00 h; mean, n = 5 rats; SC 50 mg/kg; solution U, 500 mg/mL
Readout label: concentration at 8 h (nM)

CC(C)(C#Cc1ccc(-c2ccc(Cl)c3c(NS(C)(=O)=O)nn(CC(F)(F)F)c23)c([C@H](Cc2cc(F)cc(F)c2)NC(=O)Cn2nc(C(F)(F)F)c3c2C(F)(F)[C@@H]2C[C@H]32)n1)S(C)(=O)=O [compound of Formula (Ia)]    142

###

- Assay details: PK of compound of Formula (Ia) after single subcutaneous dose of solution formulations in beagle dogs
- Format: in vivo
- Condition context: male, beagle, dog, plasma, sc, 12 mg/kg, beagle dogs, SC 12 mg/kg, 500 mg/mL solution X (5.00% ethanol, 1.91% poloxamer 188), 96.0 h, Mean n = 3
Readout label: concentration at 96 h (nM)

CC(C)(C#Cc1ccc(-c2ccc(Cl)c3c(NS(C)(=O)=O)nn(CC(F)(F)F)c23)c([C@H](Cc2cc(F)cc(F)c2)NC(=O)Cn2nc(C(F)(F)F)c3c2C(F)(F)[C@@H]2C[C@H]32)n1)S(C)(=O)=O    31.4

###

- Assay details: PK of compound of Formula (Ia) after single subcutaneous dose of solution formulations in beagle dogs
- Assay type: in vivo
- Condition context: male, beagle, dog, plasma, sc, 12 mg/kg, 504 h; individual dogs; SC 12 mg/kg; solution U, 500 mg/mL
Readout label: concentration at 504 h (nM)

CC(C)(C#Cc1ccc(-c2ccc(Cl)c3c(NS(C)(=O)=O)nn(CC(F)(F)F)c23)c([C@H](Cc2cc(F)cc(F)c2)NC(=O)Cn2nc(C(F)(F)F)c3c2C(F)(F)[C@@H]2C[C@H]32)n1)S(C)(=O)=O    151

###

- Assay details: PK of compound of Formula (Ia) after single subcutaneous dose of solution formulations in Wistar Han rats
- Format: in vivo
- Condition context: male, Wistar Han, rat, plasma, sc, 50 mg/kg, 1680 h; mean, n = 3 rats; SC 50 mg/kg; solution S, 500 mg/mL
Readout label: concentration at 1680 h

CC(C)(C#Cc1ccc(-c2ccc(Cl)c3c(NS(C)(=O)=O)nn(CC(F)(F)F)c23)c([C@H](Cc2cc(F)cc(F)c2)NC(=O)Cn2nc(C(F)(F)F)c3c2C(F)(F)[C@@H]2C[C@H]32)n1)S(C)(=O)=O [compound of Formula (Ia)]    249 nM

###

- Assay details: PK of compound of Formula (Ia) after single subcutaneous dose of solution formulations in beagle dogs
- Format: in vivo
- Condition context: male, beagle, dog, plasma, sc, 12 mg/kg, beagle dogs, SC 12 mg/kg, 400 mg/mL solution Y (water, PEG 300), 3024 h, Mean n = 3
Readout label: concentration at 3024 h (nM)

CC(C)(C#Cc1ccc(-c2ccc(Cl)c3c(NS(C)(=O)=O)nn(CC(F)(F)F)c23)c([C@H](Cc2cc(F)cc(F)c2)NC(=O)Cn2nc(C(F)(F)F)c3c2C(F)(F)[C@@H]2C[C@H]32)n1)S(C)(=O)=O [compound of Formula (Ia)]    6.15

###

- Assay details: PK of compound of Formula (Ia) after single subcutaneous dose of solution formulations in beagle dogs
- Format: in vivo
- Condition context: male, beagle, dog, plasma, sc, 12 mg/kg, beagle dogs, SC 12 mg/kg, 400 mg/mL solution Y (water, PEG 300), 2688 h, Mean n = 3
Readout label: concentration at 2688 h (nM)

CC(C)(C#Cc1ccc(-c2ccc(Cl)c3c(NS(C)(=O)=O)nn(CC(F)(F)F)c23)c([C@H](Cc2cc(F)cc(F)c2)NC(=O)Cn2nc(C(F)(F)F)c3c2C(F)(F)[C@@H]2C[C@H]32)n1)S(C)(=O)=O [compound of Formula (Ia)]    9.47

###

- Assay details: PK of compound of Formula (Ia) after single subcutaneous dose of solution formulations in Wistar Han rats
- Type: in vivo
- Condition context: male, Wistar Han, rat, plasma, sc, 50 mg/kg, Wistar Han rats, SC 50 mg/kg, 400 mg/mL solution W (5.00% ethanol, 1.57% poloxamer 188), 504 h, Mean n = 3
Readout label: concentration at 504 h (nM)

CC(C)(C#Cc1ccc(-c2ccc(Cl)c3c(NS(C)(=O)=O)nn(CC(F)(F)F)c23)c([C@H](Cc2cc(F)cc(F)c2)NC(=O)Cn2nc(C(F)(F)F)c3c2C(F)(F)[C@@H]2C[C@H]32)n1)S(C)(=O)=O    248

###

- Assay details: PK of compound of Formula (Ia) after single subcutaneous dose of solution formulations in beagle dogs
- Assay type: in vivo
- Condition context: male, beagle, dog, plasma, sc, 12 mg/kg, beagle dogs, SC 12 mg/kg, 400 mg/mL solution AA (6.25% poloxamer 188), 1.00 h, Mean n = 3
Readout label: concentration at 1 h (nM)

CC(C)(C#Cc1ccc(-c2ccc(Cl)c3c(NS(C)(=O)=O)nn(CC(F)(F)F)c23)c([C@H](Cc2cc(F)cc(F)c2)NC(=O)Cn2nc(C(F)(F)F)c3c2C(F)(F)[C@@H]2C[C@H]32)n1)S(C)(=O)=O    4

###

- Assay details: PK of compound of Formula (Ia) after single subcutaneous dose of solution formulations in beagle dogs
- Assay type: in vivo
- Condition context: male, beagle, dog, plasma, sc, 12 mg/kg, beagle dogs, SC 12 mg/kg, 400 mg/mL solution AA (6.25% poloxamer 188), 1334 h, Mean n = 3
Readout label: concentration at 1334 h (nM)

CC(C)(C#Cc1ccc(-c2ccc(Cl)c3c(NS(C)(=O)=O)nn(CC(F)(F)F)c23)c([C@H](Cc2cc(F)cc(F)c2)NC(=O)Cn2nc(C(F)(F)F)c3c2C(F)(F)[C@@H]2C[C@H]32)n1)S(C)(=O)=O [compound of Formula (Ia)]    47.6

###

- Assay details: PK of compound of Formula (Ia) after single subcutaneous dose of solution formulations in Wistar Han rats
- Type: in vivo
- Condition context: male, Wistar Han, rat, plasma, sc, 50 mg/kg, mean ± SD, n = 5 rats; SC 50 mg/kg; solution U, 500 mg/mL; read-out: AUC0-1008 h
Readout label: AUC(0-t)

CC(C)(C#Cc1ccc(-c2ccc(Cl)c3c(NS(C)(=O)=O)nn(CC(F)(F)F)c23)c([C@H](Cc2cc(F)cc(F)c2)NC(=O)Cn2nc(C(F)(F)F)c3c2C(F)(F)[C@@H]2C[C@H]32)n1)S(C)(=O)=O    338 µM·h
